Each entry below carries its reported Kd.
Target under test: T1, Biotinylated ADDL preparations (bADDLs) (N-terminal biotin)
T1 construct: Oligomer, number of copies not fixed; also called biotinylated ADDL antigen; high molecular weight 10% bADDL
Test details: BIACORE, bADDL as antigen; column Fab
Enter your answer as a number in nM; do not include the unit.

{"Binder": "20C2-12A Fab fragment (clone 4P1-32) (Fab, V domains shown) VH: QVTLKESGPALVKPTQTLTLTCTFSGFSLSTSGMGVGWIRQPPGKALEWLAHIWWDDDKSYNPSLKSRLTISKDTSKNQVVLTMTNMDPVDTATYYCARRQLGLRSIDAMDYWGQGTTVTVSS VL: DVVMTQSPLSLPVTPGEPASISCRSSQSILHSNGNTYLEWYLQKPGQSPQLLIYKVSNRFSGVPDRFSGSGSGTDFTLKISRVEAEDVGVYYCLQSSLVPLTFGQGTKLEIKR", "Kd / nM": 238}

Proceeding to the next binder to report its Kd.
Could you share which Kd value was measured for 20C2-13A Fab fragment (clone 4p1-20) (Fab, V domains shown) VH: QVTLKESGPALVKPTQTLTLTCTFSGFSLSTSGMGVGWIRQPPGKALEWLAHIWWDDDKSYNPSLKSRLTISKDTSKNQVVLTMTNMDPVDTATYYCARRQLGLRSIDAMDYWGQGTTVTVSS VL: DVVMTQSPLSLPVTPGEPASISCRSSQSILHSNGNTYLEWYLQKPGQSPQLLIYKVSNRFSGVPDRFSGSGSGTDFTLKISRVEAEDVGVYYCLQTSNVPLTFGQGTKLEIKR ?
567
